subject_of_test: human P2X2/3 receptor (Homo sapiens (Human), UniProt P56373+Q9UBL9)
Sequence (P56373 whole entry): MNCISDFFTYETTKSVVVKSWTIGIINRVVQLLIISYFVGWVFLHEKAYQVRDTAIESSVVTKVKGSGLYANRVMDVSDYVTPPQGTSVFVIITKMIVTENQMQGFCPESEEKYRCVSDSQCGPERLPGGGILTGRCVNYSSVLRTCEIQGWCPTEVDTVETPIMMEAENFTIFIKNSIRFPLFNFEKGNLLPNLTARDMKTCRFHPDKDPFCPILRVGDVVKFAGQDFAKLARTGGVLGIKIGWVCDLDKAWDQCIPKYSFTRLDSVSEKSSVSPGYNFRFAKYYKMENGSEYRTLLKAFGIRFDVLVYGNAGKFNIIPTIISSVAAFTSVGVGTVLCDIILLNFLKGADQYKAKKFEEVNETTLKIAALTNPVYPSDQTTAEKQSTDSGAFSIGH
Sequence (Q9UBL9 whole entry): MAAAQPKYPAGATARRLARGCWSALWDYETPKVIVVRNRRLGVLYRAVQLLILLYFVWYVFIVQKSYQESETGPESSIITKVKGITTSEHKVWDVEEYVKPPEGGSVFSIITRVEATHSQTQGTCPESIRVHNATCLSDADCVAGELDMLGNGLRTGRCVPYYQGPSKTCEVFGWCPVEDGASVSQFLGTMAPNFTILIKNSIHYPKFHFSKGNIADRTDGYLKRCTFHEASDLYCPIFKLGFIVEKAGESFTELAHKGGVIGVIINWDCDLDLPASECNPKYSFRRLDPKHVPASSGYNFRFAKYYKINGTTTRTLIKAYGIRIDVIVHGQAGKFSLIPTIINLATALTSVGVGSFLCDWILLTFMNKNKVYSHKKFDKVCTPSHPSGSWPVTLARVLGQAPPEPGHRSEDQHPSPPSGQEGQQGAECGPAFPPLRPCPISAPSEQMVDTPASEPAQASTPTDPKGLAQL
experiment: Intracellular calcium measurement (FLIPR, Fluo-4) of antagonist activity at human P2X2/3 receptors
Assay type: cell-based
test_conditions: human P2X2/3, FLIPR calcium assay, agonist α,β-Me-ATP; read-out: hP2X2/3 IC50
Method: Intracellular Calcium Measurement to Assess Antagonist Activity at Human P2X3 and Human P2X2/3 Receptors A fluorescent imaging plate reader (FLEX/FLIPR station; Molecular Devices) was used to monitor intracellular calcium levels using the calcium-chelating dye Fluo-4 (Molecular Probes). […] The fluorescence was measured for an interval of 90 sec at 2 sec intervals and analyzed based on the increase in peak relative fluorescence units (RFU) compared to the basal fluorescence. […]
pIC50: −log10 of the molar value.
Assign class by pIC50: not lower than 6 means yes; lower than 6 means no.

Some entries whose results are on file:
record_smiles: C[C@H](NC(=O)c1cc(OC[C@H]2CCOC2)cc(-c2ncc(C3CCC3)s2)c1)c1cnc(C(F)(F)F)nc1
label: no

record_smiles: Cc1ncc([C@@H](C)NC(=O)c2cc(OC3CCN(CC(F)(F)F)CC3)cc(-c3ncc(C)s3)c2)cn1
label: yes

record_smiles: CCc1cnc(-c2cc(OCC3CCOCC3)cc(C(=O)N[C@H](C)c3cnc(C)nc3)c2)s1
label: yes

record_smiles: Cc1cnc(-c2cc(OC3CN(C)C3)cc(C(=O)N[C@H](C)c3cnc(C(F)(F)F)nc3)c2)s1
label: no

Shifting focus to the compound that follows.
Task: Dear colleague, could you confirm whether Cc1cnc(-c2cc(OC3CCN(CC(F)(F)F)CC3)cc(C(=O)N[C@H](C)c3ccc(C(F)(F)F)nn3)c2)s1 has pIC50 at or above 6?
Result: yes

* * *

subject_of_test: human P2X3 receptor (Homo sapiens (Human), UniProt P56373)
Sequence (P56373 whole entry): as the sequence (P56373 whole entry) above
experiment: Intracellular calcium measurement (FLIPR, Fluo-4) of antagonist activity at human P2X3 receptors
Format: cell-based
test_conditions: read-out: hP2X3 IC50
IC50 strictly less than 30 nM = 1.0. Otherwise 0.0.

Some entries whose results are on file:
record_smiles: C[C@@H](NC(=O)c1cc(OC[C@H]2CCCO2)cc(-c2ncc(C3CCC3)s2)c1)c1cnc(C(F)(F)F)nc1
subject_of_test: human P2X3 receptor (Homo sapiens (Human), UniProt P56373)
label: 1.0
//
record_smiles: CCc1cnc(-c2cc(OC[C@H]3CCCO3)cc(C(=O)N[C@H](C)c3cnc(C)cn3)c2)s1
subject_of_test: human P2X3 receptor (Homo sapiens (Human), UniProt P56373)
label: 1.0
//
record_smiles: Cc1ccc([C@@H](C)NC(=O)c2cc(OC[C@H]3CCOC3)cc(-c3ncc(Cl)s3)c2)nn1
subject_of_test: human P2X3 receptor (Homo sapiens (Human), UniProt P56373)
label: 1.0

Shifting focus to the compound that follows.
Task: Threshold test, IC50 < 30 nM: Cc1cnc(-c2cc(OCC(C)(C)O)cc(C(=O)N[C@H](C)c3cnc(C(F)(F)F)nc3)c2)s1
Result: 1.0

* * *

Quick reference for pIC50 among some compounds
subject_of_test: UniProt P56373
experiment: Intracellular calcium measurement (FLIPR, Fluo-4) of antagonist activity at human P2X3 receptors
Format: cell-based
test_conditions: human P2X3, FLIPR calcium assay, agonist α,β-Me-ATP; read-out: hP2X3 IC50
# pIC50: negative log10 of molar concentration; output just the value

pIC50 for CCc1cnc(-c2cc(OC3CCOCC3)cc(C(=O)N[C@H](C)c3ccc(C)nn3)c2)s1 is 8.00

pIC50 for Cc1cnc(-c2cc(O[C@@H]3CCOC3)cc(C(=O)NCc3ccc(C(F)(F)F)nn3)c2)s1 is 7.15

pIC50 for Cc1cnc(-c2cc(OC3CCN(CC(F)(F)F)CC3)cc(C(=O)N[C@H](C)c3ccc(C(F)(F)F)nn3)c2)s1 is 8.05

pIC50 for Cc1cnc(-c2cc(OC3CCN(C(C)C)CC3)cc(C(=O)N[C@H](C)c3cnc(C(F)(F)F)nc3)c2)s1 is 7.48

pIC50 for Cc1ccc([C@@H](C)NC(=O)c2cc(Oc3nccs3)cc(-c3ncc(C)s3)c2)cn1 is 7.42

pIC50 for C#CCOc1cc(C(=O)NCc2ccc(C)nn2)cc(-c2ncc(C)s2)c1 is 6.76

pIC50 for Cc1cnc(-c2cc(OC[C@H]3CN(CC(F)F)CCO3)cc(C(=O)N[C@H](C)c3cnc(C(F)(F)F)nc3)c2)s1 is 7.72

* * *

Quick reference for pIC50 among some compounds
subject_of_test: human P2X2/3 receptor (Homo sapiens (Human), UniProt P56373+Q9UBL9)
experiment: Intracellular calcium measurement (FLIPR, Fluo-4) of antagonist activity at human P2X2/3 receptors
Assay type: cell-based
test_conditions: human P2X2/3, FLIPR calcium assay, agonist α,β-Me-ATP; read-out: hP2X2/3 IC50
# pIC50: negative log10 of molar concentration; output just the value

record_smiles: CC(C)c1cnc(-c2cc(O[C@@H]3CCOC3)cc(C(=O)N[C@H](C)c3cnc(C(F)(F)F)nc3)c2)s1
pIC50: 6.56

record_smiles: Cc1cnc(-c2cc(O[C@H]3CCOC3)cc(C(=O)N[C@H](C)c3cnc(C(F)F)nc3)c2)s1
pIC50: 6.48

record_smiles: Cc1cc(Oc2cc(C(=O)N[C@H](C)c3cnc(C)nc3)cc(-c3ncc(C)s3)c2)ccn1
pIC50: 7.39

Consider the additional compound presented here.
pIC50 for Cc1ccc([C@@H](C)NC(=O)c2cc(Oc3ccnc(C)c3)cc(-c3ncc(C)s3)c2)cn1 is 7.77

* * *

experiment: Bidirectional Caco-2 cell permeability assay
Type: in vitro ADME
test_conditions: human, Caco-2; apical to basolateral, 2 μM, 2 h, 37° C., pH 7.2
measurement_label: Papp A→B at 2 h, 2 μM (×10⁻⁶ cm/s)
Give the value, in units of ×10⁻⁶ cm/s, as a plain number.

Papp A→B at 2 h, 2 μM for CCc1cnc(-c2cc(OC[C@H]3CN(C)CCO3)cc(C(=O)N[C@H](C)c3ccc(C(F)(F)F)nn3)c2)s1 [Example 419] is 10.4

* * *

subject_of_test: human P2X3 receptor (Homo sapiens (Human), UniProt P56373)
experiment: Intracellular calcium measurement (FLIPR, Fluo-4) of antagonist activity at human P2X3 receptors
Assay type: cell-based
test_conditions: human P2X3, FLIPR calcium assay, agonist α,β-Me-ATP; read-out: hP2X3 IC50
pIC50: −log10 of the molar value.
Assign class by pIC50: not lower than 7 means T; lower than 7 means F.

Some entries whose results are on file:
record_smiles: C[C@@H](NC(=O)c1cc(OC[C@@H]2CCOC2)cc(-c2ncc(C3CCC3)s2)c1)c1cnc(C(F)(F)F)nc1
subject_of_test: human P2X3 receptor (Homo sapiens (Human), UniProt P56373)
label: T
--
record_smiles: Cc1cnc(-c2cc(OCC3CCOCC3)cc(C(=O)N[C@H](C)c3cnc(C(F)(F)F)nc3)c2)s1
subject_of_test: human P2X3 receptor (Homo sapiens (Human), UniProt P56373)
label: T
--
record_smiles: Cc1ccc(CNC(=O)c2cc(O[C@H]3CCOC3)cc(-c3ncc(C)s3)c2)nn1
subject_of_test: human P2X3 receptor (Homo sapiens (Human), UniProt P56373)
label: F
--
record_smiles: Cc1ccc([C@@H](C)NC(=O)c2cc(Oc3nccs3)cc(-c3ncc(C)s3)c2)nn1
subject_of_test: human P2X3 receptor (Homo sapiens (Human), UniProt P56373)
label: T
--
record_smiles: COc1ccc([C@@H](C)NC(=O)c2cc(OC3CCOCC3)cc(-c3ncc(C)s3)c2)cn1
subject_of_test: human P2X3 receptor (Homo sapiens (Human), UniProt P56373)
label: T

Task: Dear colleague, could you confirm whether Cc1cnc(-c2cc(O[C@H]3C[C@H]4CC[C@@H](C3)N4C)cc(C(=O)N[C@H](C)c3cnc(C(F)(F)F)nc3)c2)s1 has pIC50 at or above 7?
Result: T

Task: Dear colleague, could you confirm whether Cc1ncc([C@@H](C)NC(=O)c2cc(OCC3CC3)cc(-c3ncc(C)s3)c2)cn1 has pIC50 at or above 7?
Result: T

* * *

experiment: Bidirectional Caco-2 cell permeability assay
Format: in vitro ADME
test_conditions: human, Caco-2; basolateral to apical, 2 μM, 2 h, 37° C., pH 7.2
measurement_label: Papp B→A at 2 h, 2 μM (×10⁻⁶ cm/s)
Give the value, in units of ×10⁻⁶ cm/s, as a plain number.

Papp B→A at 2 h, 2 μM for CCc1cnc(-c2cc(OC[C@H]3CN(C)CCO3)cc(C(=O)N[C@H](C)c3ccc(C(F)(F)F)nn3)c2)s1 [Example 419] is 17.5

* * *

experiment: In vivo pharmacokinetics in dogs
test_conditions: Beagle, plasma, iv; dog, 0.5 mg/kg i.v.; read-out: Dog t½ i.v. (converted)
measurement_label: half-life (h)
Give the value, in units of h, as a plain number.

half-life for Cc1cnc(-c2cc(O[C@@H]3CCOC3)cc(C(=O)N[C@H](C)c3cnc(C(F)(F)F)nc3)c2)s1 [Example 11] is 8.8

Where these numbers come from: patent US10174016B2
